The measurements presented in this section are drawn from ChEMBL document CHEMBL4689842.

# Tested on: Fibroblast
# protocol.summary: Multiplex assay against human fibroblast
# Format: toxicity, cell-based
# cond: 48 h, 10 µM, compound concentration 10 uM, replicate 1
measured.quantity: Total Cell Count
Returns: the value as a bare number; no unit string appended.

Some solved cases for reference:
Lookup: Quick check: Total Cell Count of "Cc1ccc(C)c(Oc2ccncc2C(=O)N2CCN(C3CC3)c3ccccc32)c1" ?
Found: 211

Lookup: Item: "COc1ccc(-c2ccc3ncc4c(c3c2)n(-c2ccc(N3CCNCC3)c(C(F)(F)F)c2)c(=O)n4C)cn1.O=C(O)/C=C\C(=O)O"
Found: 111

Lookup: Another compound to check: "CCCSc1nc(N[C@@H]2C[C@H]2c2ccc(F)c(F)c2)c2nnn([C@@H]3C[C@H](OCCO)[C@@H](O)[C@H]3O)c2n1"
Found: 159

Continuing:
Lookup: For the compound "Cl.O=C(O)c1cc(-c2ccc(C3CCNCC3)cc2)c2ccc(-c3ccc(C(F)(F)F)cc3)cc2c1" , what Total Cell Count is on record?
Found: 146

Lookup: Would you kindly repeat that for Cc1ccccc1C(c1ccccc1C)N1C2CCC1CC(O)(c1ccccc1)C2 (stereo not drawn) ?
Found: 170

###

# Test system: U2OS
# protocol.summary: Multiplex assay against U2OS
# Assay type: toxicity, cell-based
# cond: human, 48 h, 10 µM, compound concentration 10 uM, replicate 1
measured.quantity: Population Normal (%)
Could you give me the number in %? Just the number is fine.

Completed entries (count: 5):
Lookup: Return reported Population Normal (%); argument: CCCSc1nc(N[C@@H]2C[C@H]2c2ccc(F)c(F)c2)c2nnn([C@@H]3C[C@H](OCCO)[C@@H](O)[C@H]3O)c2n1 [TICAGRELOR]
Found: 91

Lookup: Please do the same for COC(=O)C1=C(C)NC(C)=C(C(=O)OCCCN2CCC(c3ccccc3)(c3ccccc3)CC2)[C@H]1c1cccc([N+](=O)[O-])c1 [NIGULDIPINE] as well.
Found: 89

Lookup: COc1ccc(-c2ccc3ncc4c(c3c2)n(-c2ccc(N3CCNCC3)c(C(F)(F)F)c2)c(=O)n4C)cn1.O=C(O)/C=C\C(=O)O [BGT-226] , same question.
Found: 81

Lookup: Next entry: "CNC(=O)Nc1ccc(-c2nc(N3CC4CCC(C3)O4)c3cnn(C4CCC5(CC4)OCCO5)c3n2)cc1"
Found: 87

Lookup: Would you kindly repeat that for COc1cc2ncn(-c3cc(OCc4ccccc4C(F)(F)F)c(C(N)=O)s3)c2cc1OC [GW843682X] ?
Found: 90

Further cases:
Lookup: Consider the molecule shown here: CC(C)c1noc(N2CCC(COc3ccc(-c4ccc(S(C)(=O)=O)cc4)nc3)CC2)n1 [GSK-1292263] What is its recorded Population Normal (%)?
Found: 91

Lookup: Next: "CCc1ccc(OCc2ccccc2C(=O)Nc2ccc3nc(C)cc(N)c3c2)cc1.Cl"
Found: 88

Lookup: Same again, this time with "CC(C)Oc1ccccc1C(=O)Nc1ccccc1C(=O)Nc1cccc(S(=O)(=O)C(F)(F)F)c1"
Found: 93

###

Catalogue of compounds with associated Population Membrane Permeable-Phenotype (%)
# Test system: U2OS
# protocol.summary: Multiplex assay against U2OS
# Assay type: toxicity, cell-based
# cond: human, 24 h, 10 µM, compound concentration 10 uM, replicate 2
API: value field is a number in %; no unit string.

Lookup: Return reported Population Membrane Permeable-Phenotype (%); argument: "CC(C)NC(=O)N1CC[C@H](NC2=Nc3cc(F)ccc3N(CC(F)F)c3ccc(Cl)cc32)C1"
Found: 6

Lookup: What do we get for "C=CC(=O)Nc1cccc(Oc2nc(Nc3ccc(N4CCN(C)CC4)cc3OC)ncc2Cl)c1" ?
Found: 27

Lookup: Please answer likewise for C=CC(=O)Nc1ccc2[nH]c(=O)n(C3CCN(Cc4ccc(-c5nc6cc[nH]c(=O)c6cc5-c5ccccc5)cc4)CC3)c2c1 [Borussertib]
Found: 21

Proceed to the following item.
Lookup: What value of Population Membrane Permeable-Phenotype (%) has been recorded for this entry: CCCSc1nc(N[C@@H]2C[C@H]2c2ccc(F)c(F)c2)c2nnn([C@@H]3C[C@H](OCCO)[C@@H](O)[C@H]3O)c2n1 [TICAGRELOR]
Found: 65

###

# System: Fibroblast
# protocol.summary: Incucyte cell viability with human fibroblast; also: filed as whole numbers so only -1 and 0 and 1 occur
# Assay type: toxicity, cell-based
# cond: 24 h, 10 µM, compound concentration 10 uM, replicate number 1, timepoint 24 hours
measured.quantity: Growth Rate

Lookup: Growth Rate lookup needed for "CCNC(=O)c1cc2c(N3CCOC[C@@H]3C)ccnc2n1C" , thanks.
Found: 1

Lookup: Entry CN1CCc2c(c3ccccc3n2Cc2ccc(C(=O)NO)cc2)C1 [TUBASTATIN A] please
Found: 1

Lookup: Moving on to the next compound: "CN(C)C(=O)/C(C#N)=C/c1ccc(-c2nc3cnc4c(ccn4C)c3n2C2CCCCC2)o1"
Found: 0

Lookup: Next entry: COC(=O)/C=C/c1cccc(N(Cc2ccc(-c3ccc(N(C)C)cc3)cc2)C(=O)C2CCCCC2)c1 [FEXARAMINE]
Found: 1

Others:
Lookup: Fill blank: measured Growth Rate of the compound CC#CC(=O)N1CCC[C@H]1c1nc(-c2ccc(C(=O)Nc3ccccn3)cc2)c2c(N)nccn12 [ACALABRUTINIB] is ____.
Found: 1

Lookup: Next entry: Cc1cccc(CN2CCN(C(c3ccccc3)c3ccc(Cl)cc3)CC2)c1.Cl.Cl (configuration not stated)
Found: 0

Lookup: What about Cc1noc([C@H]2C[C@@H](c3ccc(C(F)(F)F)cc3)CN(C(=O)N3CCS(=O)(=O)C3)C2)n1 [BAY-448] ?
Found: 0

###

# Tested on: U2OS
# protocol.summary: Multiplex assay against U2OS
# Assay type: toxicity, cell-based
# cond: human, 24 h, 1 µM, compound concentration 1 uM, replicate 1
Each entry below carries its reported Population Normal (%).
Response body: numeric value in %, unit text excluded.

Solved entries:
Lookup: Need Population Normal (%) of "CCOC(=O)Nc1cc(-c2ccc(C)c(NS(C)(=O)=O)c2)nn2c(C)nnc12" , thanks.
Found: 97

Lookup: Now the same for CC1=C(C(=O)Nc2cc3cn[nH]c3cc2F)C(c2ccc(C(F)(F)F)cc2)CC(=O)N1 (configuration not stated)
Found: 97

Lookup: And the next one, "CC(C)Oc1ccccc1C(=O)Nc1ccccc1C(=O)Nc1cccc(S(=O)(=O)C(F)(F)F)c1" ?
Found: 91

More entries:
Lookup: If you can, please state the reported Population Normal (%) value of "CN1CCN(Cc2ccc(Nc3ncc(Cl)c(Nc4ccccc4S(=O)(=O)N(C)C)n3)cc2)CC1" .
Found: 90

Lookup: What about this compound? "CC(C)NC(=O)N1CC[C@H](NC2=Nc3cc(F)ccc3N(CC(F)F)c3ccc(Cl)cc32)C1"
Found: 93

Lookup: What about CCc1nn(CCCN2CCN(c3cccc(Cl)c3)CC2)c(=O)n1CCOc1ccccc1.Cl [NEFAZODONE HYDROCHLORIDE] ?
Found: 93

Lookup: Input "CC(C)c1noc(N2CCC(COc3ccc(-c4ccc(S(C)(=O)=O)cc4)nc3)CC2)n1"
Found: 84

Lookup: Let us now turn to "C=CC(=O)Nc1ccc2[nH]c(=O)n(C3CCN(Cc4ccc(-c5nc6cc[nH]c(=O)c6cc5-c5ccccc5)cc4)CC3)c2c1"
Found: 97

###

# System: HEK-293T
# protocol.summary: Multiplex assay against HEK293T
# Type: toxicity, cell-based
# cond: human, 24 h, 1 µM, compound concentration 1 uM, replicate 2
Mark each entry T if its Population Membrane Permeable-Phenotype (%) sits below 8%, and F for all others.

Lookup: Identify whether the compound "CCc1ccc(OCc2ccccc2C(=O)Nc2ccc3nc(C)cc(N)c3c2)cc1.Cl" records Population Membrane Permeable-Phenotype (%) below 8%.
Found: T

Moving on to the next compound.
Lookup: Strictly below 8%: is that where Population Membrane Permeable-Phenotype (%) of Cc1cccc(CN2CCN(C(c3ccccc3)c3ccc(Cl)cc3)CC2)c1.Cl.Cl (centres undefined) sits?
Found: T

###

# System: HEK-293T
# protocol.summary: Multiplex assay against HEK293T
# Type: toxicity, cell-based
# cond: human, 12 h, 10 µM, compound concentration 10 uM, replicate 2
measured.quantity: Total Cell Count

Lookup: Consider the molecule Cc1ccc2c(c1)c1c(n2CCc2ccc(C)nc2)CCN(C)C1 [LATREPIRDINE] and give its measured Total Cell Count.
Found: 194

Lookup: For "COc1cc(Nc2nccc(-c3cnn4nc(OC)ccc34)n2)cc(C(F)(F)F)c1" then?
Found: 275

Lookup: Request: "CNC(=O)Nc1ccc2c(c1)[C@@]1(CC2)OC(=O)N(CC(=O)N(Cc2ccc(F)cc2)[C@@H](C)C(F)(F)F)C1=O"
Found: 1787

Lookup: Could you do the same for "O=c1[nH]c2ccccc2n1C1CCN(Cc2ccc(-c3[nH]c4cc5ncnc5cc4nc3-c3ccccc3)cc2)CC1" , please?
Found: 974
